observation_type: melting point (°C)

O=C(O)C1CC(O)CN1C(=O)c1ccc2c(c1)OCO2 (stereo not given) : 230

P. COc1ccc(C2COc3c(ccc(O)c3C)C2O)cc1 (stereo not given)
Q. Nc1ccc(-c2noc(-c3cnn4c(C(F)F)cc(-c5ccc(Cl)cc5)nc34)n2)cn1
# returns the entry with the larger melting point; inputs P and Q Indicate which entry you chose by stating its label.
Q
(Q: 254 °C, P: 162 °C)

###

Recorded melting point for the following compounds

CC(C)(C)c1cc(OCC(=O)OCCN2C(C)(C)CC(OC(=O)COc3ccc(O)c(C(C)(C)C)c3)CC2(C)C)ccc1O : 74 to 77 °C
CC(=O)c1c(C)nc2c(OCc3c(Cl)ccc(S(=O)(=O)N4CCC[C@H]4C(=O)NCCCNC(=O)c4ccc(C=NN)cc4)c3Cl)cccn12 : 158 to 160 °C
CC(=O)O[C@@H]1[C@H](OC(C)=O)[C@@H](C)O[C@H]1n1c(Br)nc2c(Cl)c(Cl)c(Cl)cc21 : 160 to 162 °C

melting point measured on `N#Cc1c(N2CCCCC2)cc(-c2ccccc2)c2c1C(=O)c1ccccc1-2` = 220 to 222 °C

melting point measured on `CCCCCCC(=O)CC(C)=O` = 105 to 106 °C

melting point measured on CCN(CC)CCC1CCCCN1CCNC(=O)N1c2ccccc2C(=O)Nc2cccnc21 (stereo not given) = 161 to 162 °C
